Give measured IC50 for each item. Keep answers brief.
# testedOn: HBsAg clinical mutation D144A (Hepatitis B virus)
# methodNotes: sandwich ELISA, captured mutant HBsAg from culture supernatant;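 also: Anti-HBsAg antibodies tested for binding to mutant HBsAg secreted by stably transfected cell lines, supernatant incubated 1 h on antibody-coated plates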
Numeric answer only, unit nM assumed.

Task: Read off the recorded IC50 for NOV3540 (antibody, human IgG1, kappa, V domains shown, Full human IgG1 (kappa) expressed in CHO cells) VH: EVQLLESGGGLVQPGGSLRLSCAASGFTFSPHAMSWVRQAPGKGLEWVSAISDSGGSTHYADSVKGRFTISRDNSKNTLYLQMNSLRAEDTAVYYCARDDDAWSGYDYWFDYWGQGTLVTVSS VL: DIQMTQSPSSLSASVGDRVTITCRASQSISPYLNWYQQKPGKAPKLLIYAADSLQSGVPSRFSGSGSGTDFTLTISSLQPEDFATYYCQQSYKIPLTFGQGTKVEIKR
Output: 0.16

Task: Look up and state reported IC50 for NOV3839 (antibody, human IgG1, kappa, V domains shown, Full human IgG1 (kappa) expressed in CHO cells) VH: QVQLQESGGRLVRPGGSLRLSCAASGFIFTDYYMTWIRQAPGKGPEWIAFITSGGETTYYADSVKGRFTISRDNAKKSLFLQMYSLRADDTAVYYCVRAHFDIYQYDTRGDFTYYFDNWGLGTLVSVSS VL: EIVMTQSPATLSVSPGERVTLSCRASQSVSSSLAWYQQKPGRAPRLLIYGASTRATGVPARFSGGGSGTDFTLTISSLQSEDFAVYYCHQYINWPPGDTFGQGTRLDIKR
Output: 3.6

Task: Annotate the binder NOV3832 (antibody, human IgG1, lambda, V domains shown, Full human IgG1 (lambda) expressed in CHO cells) VH: EMQVLESGGGLVQPGGSLRLSCAASGFTFDNYAMSWVRQVPGKGLEWVSSISGSGGSTYYADSVKGQFTISRDNSKNTLYLQMNSLRAEDTAVYYCAKSSILSGGHARVYGIDVWGQGTTVTVSS VL: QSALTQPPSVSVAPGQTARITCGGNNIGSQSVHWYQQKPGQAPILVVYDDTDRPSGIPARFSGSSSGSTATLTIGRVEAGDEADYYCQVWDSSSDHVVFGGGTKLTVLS with its measured IC50.
Output: 0.99

Ref: patent US20240317840A1
